Study system: prolyl endopeptidase (Rattus norvegicus)
Construct: prolyl endopeptidase extracted from rat brain; from tissue; host or cells: rat brain
Sequence (O70196 whole entry): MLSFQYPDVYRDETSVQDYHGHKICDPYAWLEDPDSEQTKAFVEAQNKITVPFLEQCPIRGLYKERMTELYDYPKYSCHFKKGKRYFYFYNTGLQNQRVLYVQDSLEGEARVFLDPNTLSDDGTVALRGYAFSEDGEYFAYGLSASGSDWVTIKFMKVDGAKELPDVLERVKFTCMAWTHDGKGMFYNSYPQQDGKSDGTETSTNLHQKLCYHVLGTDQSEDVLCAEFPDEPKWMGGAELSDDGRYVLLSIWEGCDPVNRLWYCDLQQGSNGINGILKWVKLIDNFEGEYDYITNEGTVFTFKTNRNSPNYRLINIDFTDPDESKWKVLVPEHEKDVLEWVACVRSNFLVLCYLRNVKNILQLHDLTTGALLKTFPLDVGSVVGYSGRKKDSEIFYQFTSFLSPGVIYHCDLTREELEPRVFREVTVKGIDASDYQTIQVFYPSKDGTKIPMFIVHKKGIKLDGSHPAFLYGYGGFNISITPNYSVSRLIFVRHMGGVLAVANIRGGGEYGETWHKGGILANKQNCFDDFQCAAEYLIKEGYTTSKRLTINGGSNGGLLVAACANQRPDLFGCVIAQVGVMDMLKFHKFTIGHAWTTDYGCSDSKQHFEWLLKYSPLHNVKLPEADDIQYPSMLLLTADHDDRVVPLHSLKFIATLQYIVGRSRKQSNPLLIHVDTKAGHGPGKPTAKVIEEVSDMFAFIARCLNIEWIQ
Run description: Prolyl endopeptidase-inhibitory activity
Assay type: biochemical
Test conditions: 0.1 μM; read-out: inhibition rate, prolyl endopeptidase
Listing of entries alongside the reported inhibition at 0.1 µM.
Dear colleague, please return just the value in %, with no unit written.

>>> result_number("CCOC(=O)CN(Cc1ccccc1)C(=O)N1CCC[C@H]1C(=O)N1CCC[C@H]1C(=O)COc1ccccc1")
97
>>> result_number("O=C(C[S+]([O-])c1ccc([N+](=O)[O-])cc1)[C@@H]1CCCN1C(=O)[C@@H]1CCCN1C(=O)OCc1ccccc1 (some centres unmarked)")
97
>>> result_number("COc1ccc(CNC(=O)N2CCC[C@H]2C(=O)N2CCC[C@H]2C(=O)COc2ccc(OC)cc2)cc1")
97
>>> result_number("CC(C)[S+]([O-])CC(=O)[C@@H]1CCCN1C(=O)[C@@H]1CCCN1C(=O)OCc1ccccc1 (some centres unmarked)")
92
>>> result_number("O=C(COCc1ccccc1)[C@@H]1CCCN1C(=O)[C@@H]1CCCN1C(=O)NCc1ccccc1")
96
>>> result_number("O=C(COc1ccc(O)cc1)[C@@H]1CCCN1C(=O)[C@@H]1CCCN1C(=O)CCc1ccccc1")
96

What measured inhibition at 0.1 µM goes with Cc1ccc([S@@+]([O-])CC(=O)[C@@H]2CCCN2C(=O)[C@@H]2CCCN2C(=O)OCc2ccccc2)cc1 ?
98

What do you get for O=C(C[S@+]([O-])c1ccccc1)[C@@H]1CCCN1C(=O)[C@@H]1CCCN1C(=O)CCc1ccccc1 ?
99

What do you get for Cc1ccc([S@@+]([O-])CC(=O)[C@@H]2CCCN2C(=O)[C@@H]2CCCN2C(=O)CCc2ccccc2)cc1 ?
99

====

Study system: prolyl endopeptidase (Rattus norvegicus)
Construct: prolyl endopeptidase extracted from rat brain; from tissue; host or cells: rat brain
Run description: Prolyl endopeptidase-inhibitory activity
Type: biochemical
Test conditions: 0.1 μM; read-out: inhibition rate, prolyl endopeptidase
Listing of entries alongside the reported inhibition at 0.1 µM.
Number first, unit second.

Look over these answered cases.
>>> result("COc1ccc([S+]([O-])CC(=O)[C@@H]2CCCN2C(=O)[C@@H]2CCCN2C(=O)OCc2ccccc2)cc1 (some centres unmarked)")
"98%"
>>> result("COc1ccc(CNC(=O)N2CCC[C@H]2C(=O)N2CCC[C@H]2C(=O)C[S@+]([O-])c2ccc(OC)cc2)cc1")
"99%"
>>> result("O=C(COc1ccccc1)[C@@H]1CCCN1C(=O)[C@@H]1CCCN1C(=O)OCc1ccccc1")
"98%"

What measured inhibition at 0.1 µM goes with COc1ccc([S@@+]([O-])CC(=O)[C@@H]2CCCN2C(=O)[C@@H]2CCCN2C(=O)OCc2ccccc2)cc1 ?
90%

What do you get for O=C(C[S+]([O-])c1ccccc1)[C@@H]1CCCN1C(=O)[C@@H]1CCCN1C(=O)OCc1ccccc1 (some centres unmarked) ?
100%

What do you get for O=C(COc1ccc(Cl)cc1)[C@@H]1CCCN1C(=O)[C@@H]1CCCN1C(=O)NCc1ccc(Cl)cc1 ?
97%

What do you get for O=C(COc1ccc2c(c1)OCO2)[C@@H]1CCCN1C(=O)[C@@H]1CCCN1C(=O)NCc1ccccc1 ?
96%

What do you get for O=C(CSc1ccccc1)[C@@H]1CCCN1C(=O)[C@@H]1CCCN1C(=O)OCc1ccccc1 ?
90%
